Please provide measured TGI for the entries that follow.
Tested on: HS 578T breast
assay_overview: NCI tumour cell line growth inhibition, 48 h

CCC(CC)c1nc(Nc2ccc(C(=O)OC)cc2)c2ccccc2n1: 26.5 µM
CC1(C)CC(O)C2=C(O1)C(=O)c1ncccc1C2=O (configuration not stated): 6.56 µM
COc1ccc(C(=O)Nc2ncc(Cc3cccc(Cl)c3)s2)cc1OC: > 100 µM
NC(=O)C(=O)c1ncn(Cc2ccccc2)c1N: > 100 µM
COc1ccc(OC)c(CSc2ccc(OC)c(OC)c2)c1: > 100 µM

For each of the items listed, what is its TGI?
1. CC[C@H]1CN2CCc3cc(OC)c(OC)cc3C2C[C@@H]1CC1NCCc2cc(OC)c(OC)cc21 (some centres not stated)
2. Cc1sc2[nH]c(=O)oc(=O)c2c1C
3. CC(C)(C)N1CCC1CN (configuration not stated)
4. S=C(NNC1=NCCCCN1)Nc1ccc(Cl)cc1

1. 1.75 µM
2. > 71 µM
3. > 100 µM
4. > 100 µM

Give one value of TGI per listed molecule.
1. O=C(NC(=S)Nc1ccc2c(c1)Sc1ccccc1O2)c1ccc([N+](=O)[O-])cc1
2. CN(C)c1ccc(/C=C/c2ccnc3c(O)cccc23)cc1

1. > 100 µM
2. > 100 µM

# assay system HS 578T breast: give TGI of FC(F)(F)c1ccc(Cc2nc3cc4ccccc4cc3[nH]2)cc1 > 100 µM
